Attribute: Binding of serum 1b to looped/cyclic peptides of protein X5 of SARS-CoV Urbani
# System: antibodies in sera from SARS patients (sera 1a, 1b, 2, 6, 37, 62, London, SARS-yellow, SARS-green)
# Format: binding, human
Please give the numeric answer without any surrounding text.

>>> df
     item_sequence  observed_result
0  CTPNVTINCQDPAGG              0.8
1  VQTCTPNVTINCQDP              0.5
2  QTCTPNVTINCQDPA              0.1
3  TCTPNVTINCQDPAG              0.0
4  TAAFRDVLVVLNKRT              0.6

For record DPAGGALIARCWYLH the listed Binding of serum 1b to looped/cyclic peptides of protein X5 of SARS-CoV Urbani is 0.5

For record GALIARCWYLHEGHQ the listed Binding of serum 1b to looped/cyclic peptides of protein X5 of SARS-CoV Urbani is 0.4

----------
Attribute: Binding of Control serum LUMC to looped peptides
# Tested on: control sera (pooled serum of ten healthy LUMC hospital workers; commercial negative donor pooled serum from the Dutch bloodbank)
# Assay type: binding, human
# Set-up: unit not given here
Please give the numeric answer without any surrounding text.

Please review the following examples before continuing.
>>> print(df.to_string())
     item_sequence  observed_result
0  HTIDGSSGVANPAMD              0.2
1  STQITTDTGIENATF              0.6
2  HTHNYDYCIPYNSVT              0.6
3  FHPLADNKFALTCTS              0.8
4  EPCPSGTYEGNSPFH              0.8
5  FTTSLSLHKLLQTLV              1.6
6  PTDSTDNNQNGGRNG              0.4
7  EDRHSGVKDYVVVHG              0.7
8  LLLLFVTIYSHLLLV              0.5
9  RRVRGGDGKMKELSP              0.6

For record LFVTIYSHLLLVAAG the listed Binding of Control serum LUMC to looped peptides is 0.6

For record QWIQFMMSRRRLLAC the listed Binding of Control serum LUMC to looped peptides is 0.4

For record VSLVKPTVYVYSRVK the listed Binding of Control serum LUMC to looped peptides is 0.9

For record RGQGVPINTNSGPDD the listed Binding of Control serum LUMC to looped peptides is 0.4

For record RRPQGLPNNTASWFT the listed Binding of Control serum LUMC to looped peptides is 0.6

----------
# Test system: antibodies in sera from SARS patients (sera 1a, 1b, 2, 6, 37, 62, London, SARS-yellow, SARS-green)
# Format: binding, human
# Set-up: unit not given here
Attribute: Binding of serum SARS-green to looped/cyclic peptides of protein N of SARS-CoV Urbani
Please give the numeric answer without any surrounding text.

Please review the following examples before continuing.
>>> df
     item_sequence  observed_result
0  LDRLNQLESKVSGKG              0.2
1  LLLDRLNQLESKVSG              0.6
2  KKKTDEAQPLPQRQK              0.0
3  LNTPKDHIGTRNPNN              0.4
4  PTVTLLPAADMDDFS              0.7
5  RNSTPGSSRGNSPAR              0.1

Could you now consider this next sequence?
For record TEPKKDKKKKTDEAQ the listed Binding of serum SARS-green to looped/cyclic peptides of protein N of SARS-CoV Urbani is 0.0

----------
Attribute: Binding of a rabbit serum to looped peptides
# Tested on: rabbit serum obtained by immunizing a rabbit with the SARS-CoV strain Frankfurt 1
# Assay type: binding
# Set-up: unit not given here
Please give the numeric answer without any surrounding text.

Please review the following examples before continuing.
     item_sequence  observed_result
0  QIGGYSEDRHSGVKD              0.5
1  LCAYCCNIVNVSLVK              0.4
2  THRMCKYTQSTALQE              0.3

For record TIPLQASLPFGWLVI the listed Binding of a rabbit serum to looped peptides is 0.5

For record MSRRRLLACLCKHKK the listed Binding of a rabbit serum to looped peptides is 0.3

For record SQIQLSLLKVTAFQH the listed Binding of a rabbit serum to looped peptides is 0.5

For record QWIQFMMSRRRLLAC the listed Binding of a rabbit serum to looped peptides is 2.0

For record DPPNVQIHTIDGSSG the listed Binding of a rabbit serum to looped peptides is 0.4

----------
# Tested on: antibodies in sera from SARS patients (sera 1a, 1b, 2, 6, 37, 62, London, SARS-yellow, SARS-green)
# Format: binding, human
# Design: unit not given here
MEASURED PARAMETER: Binding of serum 2 to looped/cyclic peptides of protein N of SARS-CoV Urbani

Please review the following examples before continuing.
In [3]: df
Out[3]:
     item_sequence  observed_result
0  GTWLTYHGAIKLDDK              0.2
1  DSTDNNQNGGRNGAR              0.5
2  SAPRITFGGPTDSTD              0.2
3  EELRFPRGQGVPINT              0.8
4  RGGDGKMKELSPRWY              0.4
5  PKKDKKKKTDEAQPL              0.2
6  GVPINTNSGPDDQIG              0.2
7  RSRGNSRNSTPGSSR              0.2

For record SQASSRSSSRSRGNS the listed Binding of serum 2 to looped/cyclic peptides of protein N of SARS-CoV Urbani is 0.3

For record YYRRATRRVRGGDGK the listed Binding of serum 2 to looped/cyclic peptides of protein N of SARS-CoV Urbani is 0.2

For record FYAEGSRGGSQASSR the listed Binding of serum 2 to looped/cyclic peptides of protein N of SARS-CoV Urbani is 0.4

For record SASAFFGMSRIGMEV the listed Binding of serum 2 to looped/cyclic peptides of protein N of SARS-CoV Urbani is 0.6

For record SRGNSPARMASGGGE the listed Binding of serum 2 to looped/cyclic peptides of protein N of SARS-CoV Urbani is 0.2

For record ARPKQRRPQGLPNNT the listed Binding of serum 2 to looped/cyclic peptides of protein N of SARS-CoV Urbani is 0.4

For record RGQGVPINTNSGPDD the listed Binding of serum 2 to looped/cyclic peptides of protein N of SARS-CoV Urbani is 0.2

For record RLNQLESKVSGKGQQ the listed Binding of serum 2 to looped/cyclic peptides of protein N of SARS-CoV Urbani is 0.5

For record RRPQGLPNNTASWFT the listed Binding of serum 2 to looped/cyclic peptides of protein N of SARS-CoV Urbani is 0.5

For record RQLQNSMSGASADST the listed Binding of serum 2 to looped/cyclic peptides of protein N of SARS-CoV Urbani is 0.3

For record PTEPKKDKKKKTDEA the listed Binding of serum 2 to looped/cyclic peptides of protein N of SARS-CoV Urbani is 0.3

For record SRNSTPGSSRGNSPA the listed Binding of serum 2 to looped/cyclic peptides of protein N of SARS-CoV Urbani is 0.4

For record RRVRGGDGKMKELSP the listed Binding of serum 2 to looped/cyclic peptides of protein N of SARS-CoV Urbani is 0.3

For record QGTDYKHWPQIAQFA the listed Binding of serum 2 to looped/cyclic peptides of protein N of SARS-CoV Urbani is 0.4

----------
Attribute: Binding of a rabbit serum to looped peptides
# Tested on: rabbit serum obtained by immunizing a rabbit with the SARS-CoV strain Frankfurt 1
# Format: binding
# Design: unit not given here
Please give the numeric answer without any surrounding text.

>>> df
     item_sequence  observed_result
0  IFNKLVKDPPNVQIH              0.6
1  PYNSVTDTIVVTEGD              0.3
2  FGWLVIGVAFLAVFQ              0.5
3  LFVTIYSHLLLVAAG              0.6

Could you now consider this next sequence?
For record PTVYVYSRVKNLNSS the listed Binding of a rabbit serum to looped peptides is 0.7

----------
Attribute: Binding of a rabbit serum to looped peptides
# Test system: rabbit serum obtained by immunizing a rabbit with the SARS-CoV strain Frankfurt 1
# Type: binding
# Set-up: unit not given here
Please give the numeric answer without any surrounding text.

For record VTDTIVVTEGDGIST the listed Binding of a rabbit serum to looped peptides is 0.5

For record LLACLCKHKKVSTNL the listed Binding of a rabbit serum to looped peptides is 0.4

For record LFMRFFTLGSITAQP the listed Binding of a rabbit serum to looped peptides is 0.4

For record VAFLAVFQSATKIIA the listed Binding of a rabbit serum to looped peptides is 0.6

For record GVANPAMDPIYDEPT the listed Binding of a rabbit serum to looped peptides is 0.6

For record KNPLLYDANYFVCWH the listed Binding of a rabbit serum to looped peptides is 0.7

For record VNVSLVKPTVYVYSR the listed Binding of a rabbit serum to looped peptides is 0.6

For record VSLVKPTVYVYSRVK the listed Binding of a rabbit serum to looped peptides is 2.0

For record NATFFIFNKLVKDPP the listed Binding of a rabbit serum to looped peptides is 0.3
